- EXPERIMENTAL_SYSTEM: T1, human CTLA-4 (human, UniProt P16410 36-223)
- T1 construct: whole, on cells; CHO cells stably expressing huCTLA4; also called huCTLA4
- T1 sequence (P16410 36-223): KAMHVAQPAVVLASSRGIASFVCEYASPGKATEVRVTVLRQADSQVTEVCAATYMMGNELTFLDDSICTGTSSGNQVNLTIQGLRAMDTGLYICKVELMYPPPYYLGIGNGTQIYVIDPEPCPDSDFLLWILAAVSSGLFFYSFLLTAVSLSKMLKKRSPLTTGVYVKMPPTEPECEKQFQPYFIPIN
- EXPERIMENT_NOTES: flow cytometry MFI relative to WT CD80 IgV-Fc, CHO/huCTLA-4 cells, 33.3 nM
Fold change to WT CD80 overview
Give your result in fold as a bare value.

Worked set:
variant CD80 IgV-Fc (inert) H18Y/A26P/E35D/M47I/V68M/A71G (Fc fusion, not shown: inert human IgG1 Fc) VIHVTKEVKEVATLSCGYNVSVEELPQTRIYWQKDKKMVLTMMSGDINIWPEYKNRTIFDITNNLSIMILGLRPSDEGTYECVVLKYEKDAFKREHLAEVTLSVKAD; 8.8
variant CD80 IgV-Fc (inert) H18V/A26P/E35D/M47L/V68M/A71G (Fc fusion, not shown: inert human IgG1 Fc) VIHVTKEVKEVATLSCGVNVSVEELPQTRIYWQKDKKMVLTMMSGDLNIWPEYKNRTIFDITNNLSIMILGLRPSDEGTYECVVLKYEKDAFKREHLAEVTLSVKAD; 11.7

-- ask Return Fold change to WT CD80 (reported value) for this binder: variant CD80 IgV-Fc (inert) H18L/A26N/D46E/V68M/A71G/D90G (Fc fusion, not shown: inert human IgG1 Fc) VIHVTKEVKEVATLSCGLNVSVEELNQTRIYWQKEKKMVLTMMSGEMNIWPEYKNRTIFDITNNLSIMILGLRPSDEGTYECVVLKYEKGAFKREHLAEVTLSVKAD
-- reply 12.3

-- ask Give reported Fold change to WT CD80 value for variant CD80 IgV-Fc (inert) H18Y/E35D/M47V/V68M/A71G (Fc fusion, Fc fusions are dimeric by the general description; not shown: inert human IgG1 Fc) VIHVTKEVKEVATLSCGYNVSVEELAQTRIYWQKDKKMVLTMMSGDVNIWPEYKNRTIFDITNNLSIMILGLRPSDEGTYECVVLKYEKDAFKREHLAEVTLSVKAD
-- reply 17.1
